Numbers sourced from paper PMC10164577.

System tested: CAF-1 (Cac1-Cac2-Cac3) (Saccharomyces cerevisiae? (yeast), UniProt Q12495;Q04199;P13712 1-606;1-468;1-422)
Test protocol: EMSA; EMSA: 25 mM Tris pH 7.5, 150 mM NaCl, 1 mM EDTA, 0.02% Tween-20, 1 mM TCEP, 50 nM DNA, 6% PAGE; SEC: 50 mM HEPES pH 7.5, 200 mM NaCl, 0.01% IGEPAL, 1 mM TCEP, 10 mM MgCl2, PCNA loading at 30 C with 3 mM ATP, CAF-1 at room temperature
Particulars: protein: recombinant; chain copies: 2;2;2; label: 5' Alexa Fluor 647 on forward strand; blunt
Measure: pKd
Note on pKd: it is the negative log10 of concentration, concentration in mol/L.

// returns reported pKd for input 33 bp DNA (dsDNA) DNA 1: GCTGTCTACGAGCAATTGAGCGGCCTCGGCACC DNA 2: GGTGCCGAGGCCGCTCAATTGCTCGTAGACAGC
6.48
